Cited source for all entries: the METLIN SMRT retention time set (Domingo-Almenara et al. 2019)

- method.description: gradient 5% acetonitrile 3 min, to 50% in 2 min, to 85% in 15 min, held 3 min, 100 µL/min
- condition.info: column: Zorbax Extend-C18 2.1 x 50 mm; eluents: water / acetonitrile, 0.1% formic acid
Category | rule: reported RP-LC retention time within range, see bottom end (below 700 s), midrange (700 s to below 900 s), top end (900 s or more)

Previously resolved entries follow.
1) NNC(=O)CNc1cccc(Br)c1: bottom end
2) COc1cccc(C(=O)COc2cc(O)c3c(=O)cc(-c4ccccc4)oc3c2)c1: top end
3) Cn1cc(S(=O)(=O)N2CCC(C(=O)NCc3ccccc3)CC2)cc1C(=O)N1CCCC1: top end
4) COCc1cnc2c(c1SCc1ccc(F)cc1)c(=O)n(C)c(=O)n2C: top end
5) CCOc1ccc(N2CC(c3nnc(NC(=O)CCc4ccccc4)o3)CC2=O)cc1 (centres undefined): midrange

Query :: Looking at c1ccc(-c2nc(-c3ccnc(N4CCOCC4)c3)no2)cc1 , which class would you pick?
Result :: top end

Query :: Looking at CC1Cc2ccccc2N1C(=O)CCC(=O)N1CCCN(c2cc(=O)n(C)c(=O)n2C)CC1 (centres undefined) , which class would you pick?
Result :: bottom end

Query :: Looking at Cc1nc2nc(-c3ccc(C(C)(C)C)cc3)nn2c(C)c1CC(=O)N(CCO)Cc1ccccc1 , which class would you pick?
Result :: top end

Query :: Looking at CCN(Cc1ccccc1)C(=O)c1ncn2c1C(=O)N(CC)C(C)(C(=O)NC1CCCC1)C2 (centres undefined) , which class would you pick?
Result :: midrange

Query :: Looking at Cc1ccnc(NC(=O)C2CCCN(c3cc(=O)n(C)c(=O)n3C)C2)c1 (centres undefined) , which class would you pick?
Result :: bottom end

Query :: Looking at Cc1cc(C)n(C(CC(=O)O)C(=O)O)n1 (centres undefined) , which class would you pick?
Result :: bottom end

Query :: Looking at CC(C)NC(=O)c1ccc(OCC2CCCN(C(=O)c3ccccc3F)C2)cc1 (centres undefined) , which class would you pick?
Result :: midrange

Query :: Looking at C=CCNC(=O)N1CCCN(C2=NS(=O)(=O)C(c3ccc(F)cc3)=C2C)CC1 , which class would you pick?
Result :: midrange

Query :: Looking at CC1=C(c2ccc(F)cc2)S(=O)(=O)N=C1N1CCCN(C(=O)Cc2ccsc2)CC1 , which class would you pick?
Result :: midrange

Query :: Looking at CC(=O)c1cccc(NC(=O)N2CCN(c3cnn4c(C)nnc4c3)CC2)c1 , which class would you pick?
Result :: bottom end

Query :: Looking at CCCNCc1ccc(-c2ccccc2)o1 , which class would you pick?
Result :: bottom end

Query :: Looking at CC1=C(c2ccccc2)S(=O)(=O)N=C1N1CCCN(C(=O)c2ccc(Cl)cc2)CC1 , which class would you pick?
Result :: midrange

Query :: Looking at CCn1ccc2c(cc(C(=O)Nc3ccc(F)cc3)n2C)c1=O , which class would you pick?
Result :: midrange

Query :: Looking at CC1(C(=O)NC2CCCCCCC2)CN(S(C)(=O)=O)CC(=O)N1c1cccc(Cl)c1 (centres undefined) , which class would you pick?
Result :: top end

Query :: Looking at Cc1ccc(C)c(CS(=O)(=O)NCCc2cn(CC(C)C)c3ncccc23)c1 , which class would you pick?
Result :: top end

Query :: Looking at Cc1nc(-c2csc(S(=O)(=O)N3CCC(C(=O)NCc4ccc(F)cc4)CC3)c2)no1 , which class would you pick?
Result :: top end

Query :: Looking at CCOC(=O)Cn1cccc1-c1nc(-c2ccncc2)no1 , which class would you pick?
Result :: midrange

Query :: Looking at C=C(C)Cn1c(CNC(=O)c2ccccc2)nc2ccccc21 , which class would you pick?
Result :: bottom end

----------
- method.description: gradient 5% acetonitrile 3 min, to 50% in 2 min, to 85% in 15 min, held 3 min, 100 µL/min
- condition.info: column: Zorbax Extend-C18 2.1 x 50 mm; eluents: water / acetonitrile, 0.1% formic acid
This listing pairs molecules with measured RP-LC retention time.
# number then unit; no other words

Looking up O=C(Cc1csc(NC(=O)NC2CCCC2)n1)NCCc1c[nH]c2ccccc12 , I found its RP-LC retention time recorded as 754 s

----------
- method.description: gradient 5% acetonitrile 3 min, to 50% in 2 min, to 85% in 15 min, held 3 min, 100 µL/min
- condition.info: column: Zorbax Extend-C18 2.1 x 50 mm; eluents: water / acetonitrile, 0.1% formic acid
This listing pairs compounds with measured RP-LC retention time.
The reply should contain only the number, in s.

Reference set, count: 6
1) Cn1nccc1-c1cccc(-c2noc(-c3ccccc3Cl)n2)c1: 1170
2) O=[N+]([O-])c1ccc2c(c1)CN(S(=O)(=O)c1cccs1)CC2: 878
3) CN1CCN(C(=O)c2nnc(-c3ccc(S(=O)(=O)N4CCCCC4)cc3)o2)CC1: 654
4) COc1ccc(CNC(=O)c2cnc(OC)nc2)cc1: 673
5) Cn1ccnc1C(=O)N1CCC(Cc2noc(C3CC3)n2)C1 (configuration not stated): 590
6) CC1=NS(=O)(=O)N(Cc2ccccc2)C=C1C(=O)OCc1ccc(Cl)cc1: 1160

Looking up Cc1c(F)cccc1NC(=O)NC1CCN(c2ccc(F)cc2)C1=O (configuration not stated) , I found its RP-LC retention time recorded as 866

Looking up Cc1ccc(CNC(=O)c2csc(-c3ccc(N4CCCC4)nc3)n2)o1 , I found its RP-LC retention time recorded as 679

Looking up Cc1nn(-c2cc(N3CCCCC3)ncn2)c(C)c1CCC(=O)NCc1ccccn1 , I found its RP-LC retention time recorded as 646

Looking up CN(C)CCNC(=O)c1nc2ccccn2c1-c1ccc(Cl)cc1 , I found its RP-LC retention time recorded as 626

----------
- method.description: gradient 5% acetonitrile 3 min, to 50% in 2 min, to 85% in 15 min, held 3 min, 100 µL/min
- condition.info: column: Zorbax Extend-C18 2.1 x 50 mm; eluents: water / acetonitrile, 0.1% formic acid
Category | rule: reported RP-LC retention time within range, see lowest = under 700 s, middle = from 700 s up to 800 s, highest = 800 s and over

Previously resolved entries follow.
1. COc1ccc(C(=O)N2CCCn3nc(-c4ccc(Cl)cc4)cc3C2)cn1: highest
2. Cn1cc(C(=O)N2CC(c3nc(CCOCC4CCOCC4)no3)C2)cn1: lowest
3. NS(=O)(=O)c1ccc(CCNC(=O)c2n[nH]c3ccccc23)cc1: lowest
4. O=C(NCc1csc(C2CCN(C(=O)c3ccc(F)c(F)c3)CC2)n1)C1CCC1: middle

Now look at this entry.
Query :: Looking at O=C(COc1ccccc1Cl)N1CCCCC1CCN1CCCC1 (stereo not given) , which class would you pick?
Result :: lowest

----------
- method.description: gradient 5% acetonitrile 3 min, to 50% in 2 min, to 85% in 15 min, held 3 min, 100 µL/min
- condition.info: column: Zorbax Extend-C18 2.1 x 50 mm; eluents: water / acetonitrile, 0.1% formic acid
test.readout: RP-LC retention time
# number then unit; no other words

1. Cc1ccccc1-c1nnc(CSc2nnc(NC(=O)c3c(F)cccc3F)s2)o1: 905 s
2. CCOCCCNC(=O)c1cc2n(n1)CCCN(Cc1ccccc1)C2=O: 724 s
3. CC(C)c1nc2nccc(-c3ccc(F)cc3)n2n1: 831 s
4. O=C(c1nc2ccccc2s1)N(Cc1ccsc1)Cc1ccco1: 1110 s
5. CCc1nncn1C1CCN(S(=O)(=O)c2ccccc2C)CC1: 686 s

Looking up CN(C)C(=O)c1ccc2c(c1)nc(CN(C)C(=O)Nc1ccc(F)cc1)n2C , I found its RP-LC retention time recorded as 598 s

Looking up Cc1ccc2c(Nc3cccc(Br)c3)c(C(=O)N3CCOCC3)cnc2n1 , I found its RP-LC retention time recorded as 611 s

Looking up CCOc1ccc(NC(=O)N2CCC(n3cnc4ccc(Cl)cc4c3=O)CC2)cc1 , I found its RP-LC retention time recorded as 844 s

Looking up COc1ccc(Cl)cc1NS(=O)(=O)c1cc(-c2c(C)noc2NC(C)=O)ccc1OC , I found its RP-LC retention time recorded as 823 s

----------
- method.description: gradient 5% acetonitrile 3 min, to 50% in 2 min, to 85% in 15 min, held 3 min, 100 µL/min
- condition.info: column: Zorbax Extend-C18 2.1 x 50 mm; eluents: water / acetonitrile, 0.1% formic acid
Is RP-LC retention time at least 800 s? Then Condition met. If not, Condition not met.

Previously resolved entries follow.
1. c1coc(CN2CC(Oc3ccc(-c4noc(-c5ccncc5)n4)cc3)C2)c1: Condition not met
2. Cc1cc(C)c2c(-n3cccc3)nn(CC(=O)NCC3CCCO3)c2n1 (centres undefined): Condition not met
3. Cc1cc(C)cc(NS(=O)(=O)c2cc(-c3nc(C(C)C)cs3)cs2)c1: Condition met
4. CCn1cc(-c2nc(CC(=O)N3CCN(c4ccc(F)cc4)CC3)cs2)c2cccnc21: Condition met

Query :: Kindly determine if RP-LC retention time recorded for O=C(NC1CCN(c2cc(N3CCOCC3)cnn2)C1)C1CCCC1 (centres undefined) is above or exactly 800 s.
Result :: Condition not met

Query :: Kindly determine if RP-LC retention time recorded for CCN1CCN(c2cc(-c3nc(-c4ccc(Cl)cc4)no3)c3ccccc3n2)CC1 is above or exactly 800 s.
Result :: Condition met

Query :: Kindly determine if RP-LC retention time recorded for CCCNC(=O)CCc1c(-c2ccc(Br)cc2)nc2ccccn12 is above or exactly 800 s.
Result :: Condition not met

Query :: Kindly determine if RP-LC retention time recorded for CCn1cc(-c2nc(CC(=O)NCc3ccc4c(c3)OCO4)cs2)c2cccnc21 is above or exactly 800 s.
Result :: Condition met

Query :: Kindly determine if RP-LC retention time recorded for CCc1ccc(-n2cc(C(=O)OCC(=O)OC)c3ccccc3c2=O)cc1 is above or exactly 800 s.
Result :: Condition met

Query :: Kindly determine if RP-LC retention time recorded for COc1ccc(NC(=O)CN2C(=O)CC(C)Sc3ccccc32)c(OC)c1 (centres undefined) is above or exactly 800 s.
Result :: Condition met

Query :: Kindly determine if RP-LC retention time recorded for Cc1cccc(NC(=O)CN2C(=O)NC3(CCCCC3)C2=O)c1C is above or exactly 800 s.
Result :: Condition not met

Query :: Kindly determine if RP-LC retention time recorded for COc1ccccc1C(=O)N1CCC2(CC1)NC(=O)c1ccc(F)cc1N2C is above or exactly 800 s.
Result :: Condition not met

Query :: Kindly determine if RP-LC retention time recorded for CC(C)Oc1ccccc1CN1CCC2(CC1)CC(C)(O)CCO2 (centres undefined) is above or exactly 800 s.
Result :: Condition not met

Query :: Kindly determine if RP-LC retention time recorded for CC(NS(=O)(=O)c1cc(-c2nc(C(C)(C)C)cs2)cs1)c1ccccc1 (centres undefined) is above or exactly 800 s.
Result :: Condition met
